Here, each record is paired with measured Luciferase activation plate bound 33 nM IgG, FOC data.
Target Entity: human TREM2/DAP12 fusion protein (human, UniProt O43914 41-113, limits assumed)
Sequence (O43914 other isoform, or with tags, fused parts or gaps limits assumed): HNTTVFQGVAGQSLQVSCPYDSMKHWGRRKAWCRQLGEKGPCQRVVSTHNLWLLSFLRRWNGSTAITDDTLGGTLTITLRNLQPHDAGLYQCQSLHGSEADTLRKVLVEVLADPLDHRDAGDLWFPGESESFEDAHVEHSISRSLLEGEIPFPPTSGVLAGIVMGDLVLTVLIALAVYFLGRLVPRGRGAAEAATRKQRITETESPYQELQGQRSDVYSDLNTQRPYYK
Test Method Notes: cell-based or functional assay
Attribute Measured: Luciferase activation plate bound 33 nM IgG, FOC (FOC)

>  <Binder>
AL2p-23 (antibody, V domains shown, Fab and IgG formats under one id) VH: QVQLVQSGAEVKKPGSSVKVSCKASGYAFSSHWMNWVRQAPGQGLEWMGRIYPGDGQTNYAQKRQGRVTITADESTSTAYMELSSLRSEDTAVYYCARLLRNQPGESYAMDYWGQGTLVTVSS VL: GVVMTQTPLSLSVTPGQPASISCRTSQSLVHSNGYTYLHWYLQKPGQSPQLLIYKVSNRVSGVPDRFSGSGSGTDFTLKISRVEAEDVGVYYCSQSTRVPYTFGQGTKLEIK

>  <Data Value>
29.8

$$$$
>  <Binder>
AL2p-20 (antibody, V domains shown, Fab and IgG formats under one id) VH: QVQLVQSGAEVKKPGSSVKVSCKASGYAFSSHWMNWVRQAPGQGLEWMGRIYPGDGDTNYARKFQGRVTITADESTSTAYMELSSLRSEDTAVYYCARLLRNQPGESYAMDYWGQGTLVTVSS VL: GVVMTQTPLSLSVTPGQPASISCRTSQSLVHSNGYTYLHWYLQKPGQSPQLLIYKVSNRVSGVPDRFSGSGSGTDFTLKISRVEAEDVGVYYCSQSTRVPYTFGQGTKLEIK

>  <Data Value>
22.4

$$$$
